Each record here notes measured hGLP1R GTPgS Rel EC50.
target: human GLP-1 receptor (human, UniProt P43220 24-463); experiment: cell-based or functional assay
Report the figure in nM without appending any unit label.

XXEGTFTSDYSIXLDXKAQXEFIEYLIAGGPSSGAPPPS (D-Tyr1, Aib2, αMeL13, Orn16, K17 conjugated to (2-[2-(2-Amino-ethoxy)-ethoxy]-acetyl)2-(γ-Glu)-CO-(CH2)18-CO2H, Aib20, C-terminal amide (NH2)) [Example 349] = 0.464
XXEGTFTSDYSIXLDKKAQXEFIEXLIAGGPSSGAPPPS (D-Tyr1, Aib2, αMeL13, K17 conjugated to (2-[2-(2-Amino-ethoxy)-ethoxy]-acetyl)2-(γ-Glu)-CO-(CH2)16-CO2H, Aib20, αMeY25, C-terminal amide (NH2)) [Example 374] = 0.345

Recorded result, XXEGTFTSDYSIXLDKKAQXEFIEXLIEGGPSSGAPPPS (D-Tyr1, Aib2, αMeL13, K17 conjugated to (2-[2-(2-Amino-ethoxy)-ethoxy]-acetyl)2-(γ-Glu)-CO-(CH2)18-CO2H, Aib20, αMeY25, C-terminal amide (NH2)) [Example 379] , hGLP1R GTPgS Rel EC50: 0.239

Recorded result, FXEGTFTSDYSIXLDKKAQXAFIEYLIEGGPSSGAPPPS (Aib2, αMeL13, K17 conjugated to (2-[2-(2-Amino-ethoxy)-ethoxy]-acetyl)2-(γ-Glu)-CO-(CH2)18-CO2H, Aib20, C-terminal amide (NH2)) [Example 327] , hGLP1R GTPgS Rel EC50: 0.287

Recorded result, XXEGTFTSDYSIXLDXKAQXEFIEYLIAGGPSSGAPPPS (D-Tyr1, Aib2, αMeL13, Orn16, K17 conjugated to (2-[2-(2-Amino-ethoxy)-ethoxy]-acetyl)2-(γ-Glu)-CO-(CH2)16-CO2H, Aib20, C-terminal amide (NH2)) [Example 368] , hGLP1R GTPgS Rel EC50: 0.495

Recorded result, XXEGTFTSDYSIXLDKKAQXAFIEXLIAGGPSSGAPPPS (D-Tyr1, Aib2, αMeL13, K17 conjugated to (2-[2-(2-Amino-ethoxy)-ethoxy]-acetyl)-(γ-Glu)-CO-(CH2)18-CO2H, Aib20, αMeY25, C-terminal amide (NH2)) [Example 373] , hGLP1R GTPgS Rel EC50: 0.336
